molecular target: human Claudin-6 (CLDN6) (human) (UniProt P56747); experiment: FACS, limiting dilution, OV90 cells
measured-attribute: FACS signal at 1.6 nM
Lab note: record the figure alone, no unit after it.

// worked examples, FACS signal at 1.6 nM included
| binder | FACS signal at 1.6 nM |
| --- | --- |
| AB S5 (antibody, V domains shown) VH: EVQLLESGGGLVQPGGSMRLSCAASGFTFSNYWMNWVRQAPGKGLEWLAQIRLKSDNYATHYTDSVKGRFTISRDDSKRTVYLQMNSLRAEDTGIYYCSDGPPSGSWGQGTLLTVSS VL: DIQMTQSPSSLSASVGDRVTITCRISENIYSYLAWYQQKPGKAPKLLVYNAKILVEGVPSRFSGSGSGTDFTLTISSLQPEDFGTYYCQHHYTVPWTFGQGTKLEIK | 1040 |
| AB S1 (antibody, V domains shown) VH: EVQLLESGGGLVQPGGSMRLSCAASGFTFSNYWMNWVRQAPGKGLEWIAQIRLKSDNYATHYTDSVKGRFTISRDDSKRTVYLQMNSLRAEDTGTYYCSDGPPSGSWGQGTLLTVSS VL: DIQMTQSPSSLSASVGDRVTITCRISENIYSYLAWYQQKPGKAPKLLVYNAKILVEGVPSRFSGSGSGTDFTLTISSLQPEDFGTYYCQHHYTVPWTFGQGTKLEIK | 668 |
| AB3-7 (antibody, V domains shown, humanized; also called AB23; humanized AB3-7) VH: EVQLLESGGGLVQPGGSMRLSCAASGFTFSNYWMNWVRQAPGKGLEWVAQIRLKSDNYATHYADSVKGRFTISRDDSKNTVYLQMNSLRAEDTGVYYCNDGPPSGSWGQGTLLTVSS VL: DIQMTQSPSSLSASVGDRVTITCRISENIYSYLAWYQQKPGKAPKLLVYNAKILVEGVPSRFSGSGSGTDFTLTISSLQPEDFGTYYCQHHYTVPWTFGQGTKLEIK | 567 |
| AB S2 (antibody, V domains shown) VH: EVQLLESGGGLVQPGGSMRLSCAASGFTFSNYWMNWVRQAPGKGLEWIAQIRLKSDNYATHYADSVKGRFTISRDDSKRTVYLQMNSLRAEDTGTYYCSDGPPSGSWGQGTLLTVSS VL: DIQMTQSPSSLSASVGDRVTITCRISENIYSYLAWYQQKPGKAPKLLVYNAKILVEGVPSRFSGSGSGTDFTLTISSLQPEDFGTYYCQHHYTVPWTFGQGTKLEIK | 1510 |

Then there is this binder:
# input binder: AB1-11 (antibody, V domains shown, humanized; also called humanized AB1-11; HU-11) VH: QVQLVQSGAEVKKPGASVKMSCKASGYTFTTYTMHWVRQAPGQGLEWIGFINPSSGYTDYAQKFQGRVTLTADKSTSTVYMELSSLRSEDTAVYYCANGDYYVAYWGQGTLVTVSS VL: DIQLTQSPSSLSASVGDRVTMTCTASSSVSSTYFHWYQQKPGKAPKLWIYSTSNLASGVPSRFSGSGSGTDYTLTISSMQPEDAATYYCHQYHRSPLTFGQGTKLEIK ; wanted: its FACS signal at 1.6 nM
# output 753
